Test system: RIPK1 (Homo sapiens (Human), UniProt Q13546)
Sequence (Q13546 1-327): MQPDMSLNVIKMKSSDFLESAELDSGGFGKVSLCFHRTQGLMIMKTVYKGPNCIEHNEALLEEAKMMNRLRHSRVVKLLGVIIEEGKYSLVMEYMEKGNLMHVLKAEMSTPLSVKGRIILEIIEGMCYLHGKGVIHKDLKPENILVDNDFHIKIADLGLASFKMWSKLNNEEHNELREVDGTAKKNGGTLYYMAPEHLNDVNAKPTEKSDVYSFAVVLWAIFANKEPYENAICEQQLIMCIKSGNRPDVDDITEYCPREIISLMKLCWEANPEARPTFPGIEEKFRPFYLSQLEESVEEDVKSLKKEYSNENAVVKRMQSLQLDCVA
Assay text: ADP-Glo kinase assay (RIPK1 activity, conversion of ATP to ADP)
Format: biochemical
Run parameters: 5 nM RIPK1, 50 μM ATP, 6 h reaction; read-out: RIPK1 Enzyme Avg IC50
pIC50: −log10 of the molar value.
Label 1 for high-side pIC50 (at or above 7) and -1 for low-side pIC50 (below it).

Please review the entries below; each comes with its answer.
compound="O=C(N1CC(F)CC1c1cccc(F)c1)C12CC(CO)(C1)C2 (centres unmarked)" answer_label=-1
compound="O=C(N1N=CCC1c1cc(F)cc(F)c1)C12CC(COc3ccc(Br)cc3Cl)(C1)C2 (centres unmarked)" answer_label=1
compound="N#Cc1ccc2c(cnn2CC23CC(C(=O)N4CCC4c4cccc(F)c4)(C2)C3)c1 (centres unmarked)" answer_label=1
compound="COC(=O)C12CC(C(=O)N3N=CCC3c3cc(F)cc(F)c3)(C1)C2 (centres unmarked)" answer_label=1
compound="N#Cc1ccc2c(cnn2CC23CC(C(=O)N4N=CCC4c4cc(F)cc(F)c4)(C2)C3)c1 (centres unmarked)" answer_label=1

Query: Check this compound for pIC50 at or above 7: O=C(N1N=CCC1c1cc(F)cc(F)c1)C12CC(CN3C(=O)C(F)(F)c4ccccc43)(C1)C2 (centres unmarked)
Response: -1
